Target: Pancreatic polypeptide receptor 1 (Sus scrofa, UniProt O97505)
Sequence (O97505 whole entry): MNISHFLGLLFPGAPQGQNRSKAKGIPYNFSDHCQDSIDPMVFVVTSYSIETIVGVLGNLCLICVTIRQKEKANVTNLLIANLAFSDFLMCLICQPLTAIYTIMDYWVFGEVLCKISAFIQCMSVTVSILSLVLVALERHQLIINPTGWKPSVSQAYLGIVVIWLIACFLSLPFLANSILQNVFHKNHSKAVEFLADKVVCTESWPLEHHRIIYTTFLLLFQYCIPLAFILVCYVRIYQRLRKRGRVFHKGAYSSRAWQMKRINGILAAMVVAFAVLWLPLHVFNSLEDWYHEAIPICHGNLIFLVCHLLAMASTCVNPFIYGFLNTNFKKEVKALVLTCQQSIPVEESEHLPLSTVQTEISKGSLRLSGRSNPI
READOUT: Ki (nM)
Give bare numbers, in nM.

Q) Consider the substance H-APLEPEYPGDNATPEQMAQYAAELRRYINMLTRPRY-NH2 [CAS_59763-91-6] and give its measured Ki.
A) 0.013

###

Molecular target: Neuropeptide Y receptor type 4 (Homo sapiens)
Sequence (P50391 whole entry C240R): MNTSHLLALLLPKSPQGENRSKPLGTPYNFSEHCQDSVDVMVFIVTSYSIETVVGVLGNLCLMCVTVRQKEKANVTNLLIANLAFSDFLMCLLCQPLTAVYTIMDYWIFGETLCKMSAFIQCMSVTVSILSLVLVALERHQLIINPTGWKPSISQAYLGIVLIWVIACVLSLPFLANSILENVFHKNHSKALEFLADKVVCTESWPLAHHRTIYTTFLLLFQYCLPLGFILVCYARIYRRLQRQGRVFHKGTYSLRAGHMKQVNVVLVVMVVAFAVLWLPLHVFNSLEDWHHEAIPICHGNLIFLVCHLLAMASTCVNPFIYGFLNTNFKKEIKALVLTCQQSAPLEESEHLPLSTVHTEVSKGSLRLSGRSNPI
READOUT: pKi
Numbers only, as −log10 of the molar value.

Q) Consider the substance H-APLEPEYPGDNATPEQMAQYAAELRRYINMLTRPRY-NH2 [CAS_59763-91-6] and give its measured pKi.
A) 10.51
